Data origin, for the record: patent US20220259180A1

test system: MERS-CoV; type: cell-based, MERS-CoV (Jordan strain); conditions: Huh7 cells, MOI 0.1, 24 h; read-out: IC50 against MERS-CoV
Would you kindly list IC50 for each of these molecules?

Query: What value of IC50 has been recorded for this entry: COc1ccc(CNCCc2ccccc2F)c(OCC(O)CN2CCN(C)CC2)c1 (centres unmarked)
Response: ~5 µM

Query: Queued: COc1ccc(CNCCc2ccccc2C)c(OCC(O)CN2CCN(C)CC2)c1 (centres unmarked)
Response: ~5 µM

* * *

system: Influenza virus; assay type: cell-based, influenza A virus NL09 strain; details: read-out: IC50 against IAV
pIC50: −log10 of the molar value.
readout: pIC50

Query: What value of pIC50 has been recorded for this entry: COc1ccc(CNCCc2ccccc2F)c(OCC(O)CN2CCN(C)CC2)c1 (centres unmarked)
Response: ~5.30

Query: Queued: COc1ccc(CNCCc2ccccc2C)c(OCC(O)CN2CCN(C)CC2)c1 (centres unmarked)
Response: ~5.30
